System: SK-MEL-2 melanoma
protocol text: NCI tumour cell line growth inhibition, 48 h
Parameter TGI: see the listing below.

| molecule | tgt | TGI |
| --- | --- | --- |
| O=C(CCCn1cnc([N+](=O)[O-])n1)NCCn1ccnc1[N+](=O)[O-] | SK-MEL-2 melanoma | > 100 µM |

Quick check: TGI of CCCCOC(=O)C(=O)C(CCC(=O)c1ccc(C)cc1)C(=O)C=C(C)C (centres undefined) ?
> 100 µM

Queued: Cc1ccc(CNc2c3ccccc3nc3ccccc23)cc1
4.47 µM

Queued: N=C(N)SCCON1C(=O)c2ccccc2C1=O
> 100 µM

Queued: Cc1cc2c(c(C#N)c1C)NC(=O)CCC2=O
> 100 µM

Queued: CC(=O)O/C=C\OC1CCCC1(c1ccccc1)c1ccccc1 (centres undefined)
12.5 µM

Queued: Cn1c2c(c3ccccc31)CCN(CCCCN1CCc3c(n(C)c4ccccc34)C1=O)C2
> 100 µM

Queued: CCN(CC)Cc1nc2sc3c(c2c(=O)n1-c1ccccc1)CCCC3
38.6 µM

Queued: O=c1oc2cc(OS(=O)(=O)c3ccc(F)cc3)ccc2c2c1CCCCC2
> 100 µM
